Test system: Wolbachia pipientis
Assay: Anti-Wolbachia Cell-Based Screen
Assay type: functional
Set-up: scale not given: in the data most compounds retested in dose-response had high values
Details: 5 µM
Among all 48,000 compounds or so, about 13,000 (27%) showed an effect of 50% or more. The list shows a part of the results.
REPORTED_METRIC: Percent Effect
The reply must contain the numeric value and, after it, the unit.

See these solved cases before continuing.
[[record]]
compound = "C1CCc2nnc(CNc3nc(C4CC4)nc4c3CCNCC4)n2CC1"
endpoint_result = "99.26%"

[[record]]
compound = "Cc1ccccc1N1CCCN(C(=O)c2nn(C)cc2Cl)CC1"
endpoint_result = "7.51%"

[[record]]
compound = "CC1CN(C)CCN1C(=O)c1cccn1Cc1cccs1 (stereo not given)"
endpoint_result = "-1.596%"

[[record]]
compound = "Cc1nccn1[C@@H]1CC[C@@H](NC(=O)Cn2c(C)nc3ccccc32)[C@H]1O"
endpoint_result = "99.52%"

[[record]]
compound = "Cc1noc(C)c1CNC(=O)N1CCC(NS(C)(=O)=O)CC1"
endpoint_result = "-20.1%"


Next compound, Percent Effect to be filled in.
QUERY: Would you kindly share the measured Percent Effect for Nc1nccnc1C(=O)N1CCN(Cc2cccc3ccccc23)CC1 ?
RESULT: -30.2%

* * *

Recorded measurements of Percent Effect, one per entry
System: Wolbachia pipientis
Test: Anti-Wolbachia Cell-Based Screen
Format: functional
Design: scale not given: in the data most compounds retested in dose-response had high values
Settings: 5 µM
About 13,000 (27%) of roughly 48,000 compounds showed an effect of 50% or more. This is one part of the list.
Field: numeric (%). Do not append units.

See these solved cases before continuing.
[[record]]
compound = "CCC(C)(CNC(=O)Nc1nccs1)N1CCOCC1 (stereo not given)"
target_entity = "Wolbachia pipientis"
reported_metric = "Percent Effect"
units_symbol = "%"
endpoint_result = 14.58

[[record]]
compound = "Cc1ccoc1C(=O)N1CC[C@@H]2O[C@@H](C)C[C@H]2C1"
target_entity = "Wolbachia pipientis"
reported_metric = "Percent Effect"
units_symbol = "%"
endpoint_result = 0.7135

[[record]]
compound = "CN(C)C[C@H]1OC[C@@H]2CCN(C(=O)c3ccco3)C[C@@H]21.O=C(O)C(F)(F)F"
target_entity = "Wolbachia pipientis"
reported_metric = "Percent Effect"
units_symbol = "%"
endpoint_result = 5.332

[[record]]
compound = "Cc1ccc(C(=O)N2CC[C@@H]3CN(C4CCOCC4)CCO[C@@H]3C2)o1.O=C(O)C(F)(F)F"
target_entity = "Wolbachia pipientis"
reported_metric = "Percent Effect"
units_symbol = "%"
endpoint_result = 105.9

[[record]]
compound = "Cc1ccoc1C(=O)N1CC[C@H]2O[C@@H](C)C[C@H]2C1"
target_entity = "Wolbachia pipientis"
reported_metric = "Percent Effect"
units_symbol = "%"
endpoint_result = -21.6

[[record]]
compound = "CN1CCO[C@@H]2CN(C(=O)c3ccc4[nH]ccc4c3)CC[C@@H]2C1.O=C(O)C(F)(F)F"
target_entity = "Wolbachia pipientis"
reported_metric = "Percent Effect"
units_symbol = "%"
endpoint_result = -13.85

[[record]]
compound = "CC(C)(CNC(=O)Nc1nccs1)N1CCOCC1"
target_entity = "Wolbachia pipientis"
reported_metric = "Percent Effect"
units_symbol = "%"
endpoint_result = -4.16

[[record]]
compound = "O=C(O)C(F)(F)F.O=C(c1ccco1)N1CCOCC2(CCN(C3CCOCC3)C2)C1 (stereo not given)"
target_entity = "Wolbachia pipientis"
reported_metric = "Percent Effect"
units_symbol = "%"
endpoint_result = 7.241

[[record]]
compound = "Cc1nc(NC(=O)C2(C)CN(C)CCO2)sc1C.Cl (stereo not given)"
target_entity = "Wolbachia pipientis"
reported_metric = "Percent Effect"
units_symbol = "%"
endpoint_result = 123.3


QUERY: Recorded Percent Effect for Cc1nc(NC(=O)C(C)N2CCN(c3ncccn3)CC2)sc1C (stereo not given) with Wolbachia pipientis, please?
RESULT: -4.452

Where do these numbers come from? They come from ChEMBL document CHEMBL3988442.
